Readout Kind: flash point (°C)
Give bare numbers, in °C.

>>> experimental_result("O=C(Cl)C(Cl)Cl [Dichloroacetyl chloride]")
66.00
>>> experimental_result("OCC(O)CO [Glycerol]")
160.00
>>> experimental_result("O=C(Cl)c1ccccc1 [Benzoyl chloride]")
72.00
>>> experimental_result("CC(=O)OCC(C)C [iso-Butyl acetate]")
18.00
>>> experimental_result("Nc1ccccc1[N+](=O)[O-] [o-Nitroaniline]")
168.00
>>> experimental_result("OCCS [2-Mercaptoethanol]")
74.00
>>> experimental_result("Oc1ccccc1Cl [o-Chlorophenol]")
64.00
>>> experimental_result("CCCCCC(=O)O [Caproic acid]")
102.00

Value sought for every listed compound: flash point.
1. Cc1ccccn1 [2-Picoline]
2. NCCNCCN [Diethylenetriamine]
3. S=C=S [Carbon disulphide]
4. C1=COCCC1 [3,4-Dihydro-2H-pyran]

1: 39.00; 2: 102.00; 3: -30.00; 4: -18.00

Value sought for every listed compound: flash point.
1. CC(C)CC(O)CC(C)C [Diisobutyl carbinol]
2. NNc1ccccc1 [Phenylhydrazine]
3. OCCN(CCO)CCO [Triethanolamine]
4. C=CC(=C)C [Isoprene]
5. CC(Cl)(Cl)[N+](=O)[O-] [1,1-Dichloro-1-nitroethane]
6. CC(Cl)CCl (configuration not stated) [1,2-Dichloropropane]
7. CCCCC(C)OC(C)=O (configuration not stated) [sec-Hexyl acetate]

1: 74.00; 2: 89.00; 3: 179.00; 4: -54.00; 5: 76.00; 6: 16.00; 7: 45.00

Value sought for every listed compound: flash point.
1. CCCCC(CC)CO (configuration not stated) [2-Ethyl hexanol]
2. Cc1ccco1 [2-Methyl furan]
3. Clc1cccc2ccccc12 [Chloronaphthalene]
4. O=P(Oc1ccccc1)(Oc1ccccc1)Oc1ccccc1 [Triphenyl phosphate]
5. Nc1ccc([N+](=O)[O-])cc1 [p-Nitroaniline]
6. ClCC1CO1 (configuration not stated) [Epichlorohydrin]

1: 84.00; 2: -30.00; 3: 132.00; 4: 220.00; 5: 199.00; 6: 41.00

Value sought for every listed compound: flash point.
1. CCOC(=O)CCl [Ethyl chloroacetate]
2. CCCCCCCN [n-Heptylamine]

[66.00, 54.00]
